Reported Activity values for the following molecules.
Biological target: NAD-dependent protein deacetylase sirtuin-1 (Homo sapiens) (UniProt Q96EB6)
Sequence (whole entry): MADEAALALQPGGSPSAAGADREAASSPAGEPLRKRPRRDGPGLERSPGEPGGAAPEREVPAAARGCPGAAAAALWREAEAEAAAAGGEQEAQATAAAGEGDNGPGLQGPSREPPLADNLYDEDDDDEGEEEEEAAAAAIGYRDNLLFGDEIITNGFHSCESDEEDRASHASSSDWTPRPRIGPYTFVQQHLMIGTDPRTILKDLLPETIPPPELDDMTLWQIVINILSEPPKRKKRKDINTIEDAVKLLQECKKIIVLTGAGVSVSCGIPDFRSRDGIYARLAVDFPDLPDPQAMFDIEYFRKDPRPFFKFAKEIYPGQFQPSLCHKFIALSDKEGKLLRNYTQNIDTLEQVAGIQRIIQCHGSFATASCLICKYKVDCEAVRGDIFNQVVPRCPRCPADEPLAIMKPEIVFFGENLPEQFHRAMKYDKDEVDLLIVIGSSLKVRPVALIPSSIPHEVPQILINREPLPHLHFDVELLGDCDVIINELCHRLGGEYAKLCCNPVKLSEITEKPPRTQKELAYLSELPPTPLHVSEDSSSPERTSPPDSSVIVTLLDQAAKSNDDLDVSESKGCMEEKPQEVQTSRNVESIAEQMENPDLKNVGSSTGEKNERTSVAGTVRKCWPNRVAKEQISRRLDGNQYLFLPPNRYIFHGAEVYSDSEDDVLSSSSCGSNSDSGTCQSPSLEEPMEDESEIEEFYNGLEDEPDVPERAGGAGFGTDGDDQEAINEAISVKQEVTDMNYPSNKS
Test: Substrate activity at human N-terminal His-tagged SIRT1 (183 to 664 residues) expressed in Escherichia coli at 5 uM measured after 2 hrs in presence of NAD+ and trypsin by fluorescence assay
Where a SMILES comes first, the peptide text is derived from it. The star is where a group is joined. AMC = Cc1cc(=O)oc2cc(N*)ccc12
Enter your answer as a number in RFU; do not include the unit.

IN: Please provide the recorded Activity for CC[C@H](C)[C@H](NC(=O)[C@H](CC(C)C)NC(=O)[C@H](CCCNC(=N)N)NC(C)=O)C(=O)N[C@@H](CCCCNC(C)=O)C(=O)Nc1ccc2c(C)cc(=O)oc2c1 (Ac-RLIK(Ac)-{AMC}) , tested on NAD-dependent protein deacetylase sirtuin-1 (Homo sapiens) (UniProt Q96EB6).
OUT: 18.3

IN: Please provide the recorded Activity for CC(=O)NCCCC[C@H](NC(=O)[C@H](CCCCN)NC(=O)[C@H](Cc1cnc[nH]1)NC(=O)[C@H](CCCNC(=N)N)NC(C)=O)C(=O)Nc1ccc2c(C)cc(=O)oc2c1 (Ac-RHKK(Ac)-{AMC}) , tested on NAD-dependent protein deacetylase sirtuin-1 (Homo sapiens) (UniProt Q96EB6).
OUT: 1.13

IN: Please provide the recorded Activity for CC(=O)NCCCC[C@H](NC(=O)[C@H](CCCNC(=N)N)NC(=O)[C@H](CO)NC(=O)[C@H](CC(N)=O)NC(C)=O)C(=O)Nc1ccc2c(C)cc(=O)oc2c1 (Ac-NSRK(Ac)-{AMC}) , tested on NAD-dependent protein deacetylase sirtuin-1 (Homo sapiens) (UniProt Q96EB6).
OUT: 0.37

###

Reported Activity values for the following molecules.
Target: NAD-dependent protein deacetylase sirtuin-3, mitochondrial (Homo sapiens)
Sequence (whole entry): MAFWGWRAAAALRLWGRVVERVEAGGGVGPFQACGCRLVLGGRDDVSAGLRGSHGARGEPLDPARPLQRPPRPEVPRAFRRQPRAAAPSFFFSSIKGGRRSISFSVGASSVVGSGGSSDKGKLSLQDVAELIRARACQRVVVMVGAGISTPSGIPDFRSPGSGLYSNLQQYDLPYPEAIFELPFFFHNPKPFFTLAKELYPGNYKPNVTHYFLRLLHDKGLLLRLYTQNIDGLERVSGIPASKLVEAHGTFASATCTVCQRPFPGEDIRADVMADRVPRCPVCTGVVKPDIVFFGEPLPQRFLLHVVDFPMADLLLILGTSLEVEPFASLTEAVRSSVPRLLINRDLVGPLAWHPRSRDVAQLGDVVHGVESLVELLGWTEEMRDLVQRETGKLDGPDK
Test: Substrate activity at human N-terminal His-tagged SIRT3 (122 to 391 residues) expressed in Escherichia coli at 5 uM measured after 2 hrs in presence of NAD+ and trypsin by fluorescence assay
*1 amine or outer side, *2 acyl side, *3 side chain or, on linkers, in order; H or OH if unused. Where a SMILES comes first, the peptide text is derived from it. The star is where a group is joined. AMC = Cc1cc(=O)oc2cc(N*)ccc12; Suc = O=C(CCC(=O)[*:2])[*:1]; Decanoyl = CCCCCCCCCC(=O)*
Enter your answer as a number in RFU; do not include the unit.

IN: Entry CC(=O)NCCCC[C@H](NC(=O)[C@H](CCCNC(=N)N)NC(=O)[C@H](C)NC(=O)[C@@H](NC(C)=O)[C@@H](C)O)C(=O)Nc1ccc2c(C)cc(=O)oc2c1 (Ac-TARK(Ac)-{AMC}) : reported Activity = ?
OUT: 0.38

IN: Entry CC(=O)N[C@@H](CO)C(=O)N[C@@H](CC(C)C)C(=O)NCC(=O)N[C@@H](CCCCNC(=O)CCC(=O)O)C(=O)Nc1ccc2c(C)cc(=O)oc2c1 (Ac-SLGK(Suc)-{AMC}) : reported Activity = ?
OUT: 0.53

IN: Entry CC[C@H](C)[C@H](NC(C)=O)C(=O)N[C@@H](CCCNC(=N)N)C(=O)N[C@H](C(=O)N[C@@H](CCCCNC(=O)CCC(=O)O)C(=O)Nc1ccc2c(C)cc(=O)oc2c1)[C@@H](C)CC (Ac-IRIK(Suc)-{AMC}) : reported Activity = ?
OUT: 0.64

IN: Entry CCCCCCCCCC(=O)NCCCC[C@H](NC(=O)[C@H](CC(=O)O)NC(=O)[C@@H](NC(=O)[C@H](CCC(=O)O)NC(C)=O)[C@@H](C)O)C(=O)Nc1ccc2c(C)cc(=O)oc2c1 (Ac-ETDK(Decanoyl)-{AMC}) : reported Activity = ?
OUT: 0.66

IN: Entry CC(=O)NCCCC[C@H](NC(=O)[C@H](CO)NC(=O)[C@H](Cc1ccccc1)NC(=O)[C@H](CC(=O)O)NC(C)=O)C(=O)Nc1ccc2c(C)cc(=O)oc2c1 (Ac-DFSK(Ac)-{AMC}) : reported Activity = ?
OUT: 1.29

IN: Entry CC(=O)NCCCC[C@H](NC(=O)[C@H](CCCNC(=N)N)NC(=O)[C@H](CO)NC(=O)[C@H](CC(N)=O)NC(C)=O)C(=O)Nc1ccc2c(C)cc(=O)oc2c1 (Ac-NSRK(Ac)-{AMC}) : reported Activity = ?
OUT: 0.41

IN: Entry CC(=O)N[C@@H](CC(C)C)C(=O)NCC(=O)N[C@@H](CO)C(=O)N[C@@H](CCCCNC(=O)CCC(=O)O)C(=O)Nc1ccc2c(C)cc(=O)oc2c1 (Ac-LGSK(Suc)-{AMC}) : reported Activity = ?
OUT: 0.56

###

Reported Activity values for the following compounds.
biological target: UniProt Q8IXJ6; test: Substrate activity at human N-terminal His-tagged SIRT2 (56 to 356 residues) expressed in Escherichia coli at 5 uM measured after 2 hrs in presence of NAD+ and trypsin by fluorescence assay
Sequence (Q8IXJ6 whole entry, the tested form may be a part): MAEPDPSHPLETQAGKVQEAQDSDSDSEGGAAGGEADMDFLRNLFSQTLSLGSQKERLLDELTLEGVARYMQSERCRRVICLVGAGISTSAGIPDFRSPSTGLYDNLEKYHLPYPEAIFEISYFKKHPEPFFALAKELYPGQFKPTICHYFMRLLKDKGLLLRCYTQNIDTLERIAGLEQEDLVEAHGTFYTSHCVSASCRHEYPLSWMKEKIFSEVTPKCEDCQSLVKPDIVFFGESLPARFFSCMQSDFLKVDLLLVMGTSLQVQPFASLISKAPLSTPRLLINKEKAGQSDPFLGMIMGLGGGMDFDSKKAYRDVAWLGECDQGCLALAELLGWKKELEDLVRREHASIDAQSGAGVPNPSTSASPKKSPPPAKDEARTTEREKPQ
*1 amine or outer side, *2 acyl side, *3 side chain or, on linkers, in order; H or OH if unused. Where a SMILES comes first, the peptide text is derived from it. The star is where a group is joined. AMC = Cc1cc(=O)oc2cc(N*)ccc12; Suc = O=C(CCC(=O)[*:2])[*:1]; Decanoyl = CCCCCCCCCC(=O)*
Enter your answer as a number in RFU; do not include the unit.

Some compounds with known Activity results, for comparison:
compound	experimentalTarget	unit	reportedResult
CC(=O)N[C@@H](CO)C(=O)N[C@@H](CC(C)C)C(=O)NCC(=O)N[C@@H](CCCCNC(=O)CCC(=O)O)C(=O)Nc1ccc2c(C)cc(=O)oc2c1 (Ac-SLGK(Suc)-{AMC})	UniProt Q8IXJ6	RFU	0.25
CC[C@H](C)[C@H](NC(=O)[C@H](CC(C)C)NC(=O)[C@H](CCCNC(=N)N)NC(C)=O)C(=O)N[C@@H](CCCCNC(C)=O)C(=O)Nc1ccc2c(C)cc(=O)oc2c1 (Ac-RLIK(Ac)-{AMC})	UniProt Q8IXJ6	RFU	4.96

Proceeding to the next compound to report its Activity.
IN: Entry CCCCCCCCCC(=O)NCCCC[C@H](NC(=O)[C@H](CCCCN)NC(=O)[C@@H]1CCCN1C(=O)[C@H](CC(N)=O)NC(C)=O)C(=O)Nc1ccc2c(C)cc(=O)oc2c1 (Ac-NPKK(Decanoyl)-{AMC}) : reported Activity = ?
OUT: 1.18

The values you see were collected from ChEMBL document CHEMBL4680222.
